- assayed system: IgG receptor FcRn large subunit p51 (Homo sapiens, UniProt P55899)
- Sequence (P55899 whole entry): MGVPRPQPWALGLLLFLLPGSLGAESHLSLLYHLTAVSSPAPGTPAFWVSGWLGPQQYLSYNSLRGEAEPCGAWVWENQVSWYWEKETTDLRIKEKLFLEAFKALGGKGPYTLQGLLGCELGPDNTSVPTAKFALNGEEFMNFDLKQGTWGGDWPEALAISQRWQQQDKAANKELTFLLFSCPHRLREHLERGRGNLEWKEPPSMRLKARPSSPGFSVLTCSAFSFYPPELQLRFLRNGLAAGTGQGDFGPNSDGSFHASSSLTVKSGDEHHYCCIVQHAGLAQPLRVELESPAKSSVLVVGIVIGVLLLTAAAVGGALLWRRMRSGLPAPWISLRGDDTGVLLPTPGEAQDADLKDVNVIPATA
- experimental protocol: Binding affinity to human FcRn at pH 6 by surface plasmon resonance assay
endpoint name: Kd (nM)
Respond numerically; units are nM and should not be typed.

* CC(C)C[C@H](NC(=O)CN1CCC[C@H](NC(=O)[C@H](Cc2ccccc2)NC(=O)[C@H](Cc2cnc[nH]2)NC(=O)CNC(=O)[C@@H](NC(=O)[C@H](NC(=O)[C@H](Cc2ccccc2)NC(=O)[C@@H](N)CCCN=C(N)N)C(C)(C)S)[C@@H](C)O)C1=O)C(=O)N[C@@H](Cc1ccc(O)cc1)C(=O)N1CCC[C@H]1C(=O)N[C@@H](CS)C(=O)O | 670

Next item in the queue.
Input line: Which measured Kd value corresponds to `CC(C)C[C@H](NC(=O)CN(C)C(=O)[C@@H](C)NC(=O)[C@H](Cc1ccccc1)NC(=O)[C@H](Cc1cnc[nH]1)NC(=O)CNC(=O)[C@@H](NC(=O)[C@@H](NC(=O)[C@H](Cc1ccccc1)NC(=O)[C@H](CCCNC(=N)N)NC(=O)[C@@H](N)CCC(N)=O)C(C)(C)S)[C@@H](C)O)C(=O)N[C@@H](Cc1ccc(O)cc1)C(=O)N1CCC[C@H]1C(=O)N[C@@H](CS)C(=O)N[C@@H](CC(N)=O)C(=O)NCC(=O)N1CCC[C@H]1C(=O)O` ?
Output line: 190
